Assign pIC50 to each entry below.
- assayed system: Apelin receptor (Homo sapiens)
- method: potency against CXCR6 with APJ panel – cell-based, beta-arrestin, DiscoveRx, uHTS hits, dose response (AID 624129)
- assay context: CXCR6 beta-arrestin (DiscoveRx) antagonist cell assay, APJ, run 3, dose range 1
Answers are plain numbers, as −log10 of the molar value.

As a guide, the following entries are already answered.
| compound | pIC50 |
| --- | --- |
| O=C1c2ccccc2C(=O)N1OS(=O)(=O)c1ccc(F)cc1 | 4.71 |
| O=C1C=CC2(C=C1)O[C@H](Cc1ccccc1)[C@@H](Cc1ccccc1)O2 | 5.08 |
| Cc1[nH][nH]c(=O)c1C(c1c(C)[nH][nH]c1=O)c1cn(Cc2ccc(Cl)c(Cl)c2)c2ccccc12 | 4.49 |
| Cc1cccc(C(=O)Nc2ccc(C(=O)/C=C/c3cccnc3)cc2)c1 | 4.98 |
| O=C(Cn1sc2ccccc2c1=O)NC12CC3CC(CC(C3)C1)C2 | 5.68 |
| O=C(Nc1cccc(C(F)(F)F)c1)Oc1ccc(Cl)c2cccnc12 | 6.33 |
| O=Cc1s/c(=N\S(=O)(=O)c2ccccc2)n(CCCCl)c1Cl | 5.18 |
| O=[N+]([O-])c1ccc(Sc2cccc[n+]2[O-])c2nonc12 | 4.70 |

Each molecule below has a reported value. Please supply its pIC50.
1. O=[N+]([O-])c1c(Nc2ccc(O)cc2)cc(Cl)c2nonc12
2. CCN(c1ccccc1)S(=O)(=O)c1ccc(NC(=O)c2nc(S(C)(=O)=O)ncc2Cl)cc1

Given back:
4.82
4.78

---

- assayed system: C-X-C chemokine receptor type 6 (Homo sapiens)
- method: potency against CXCR6 with APJ panel – cell-based, beta-arrestin, DiscoveRx, uHTS hits, dose response (AID 624129)
- assay context: CXCR6 beta-arrestin (DiscoveRx) antagonist cell assay, CXCR6, dose range 1, mean IC50 across replicates
Can you tell me log10 of IC50 for the items I'm about to list?
The figures below represent log10 of IC50, where IC50 is stated in µM.

Check out these entries, answers already filled in.
| molecule | numeric result |
| --- | --- |
| Cc1cc(S(=O)(=O)c2ccc(Cl)cc2)nc(S(=O)(=O)c2ccc(Cl)cc2)c1C#N | 1.26 |
| Cc1c(Nc2cc(Cl)c3nonc3c2[N+](=O)[O-])c(=O)n(-c2ccccc2)n1C | 0.59 |
| COc1ccc(OC)c2sc(N(CCCN(C)C)C(=O)CCS(=O)(=O)c3ccccc3)nc12 | 1.10 |

# map each molecule to its log10 of IC50
1. CCOc1cc(Br)c(Br)c(C=Nc2ccc(NC(C)=O)cc2)c1O
2. COC(=O)c1ccc2c(c1)C(C)(C)C(/C=C/c1ccccc1O)=[N+]2C
3. CCS(=O)(=O)c1ncc(Cl)c(C(=O)Nc2ccc(S(=O)(=O)N(C)c3ccccc3)cc2)n1
4. CN(CCO)c1cc(Sc2nc3ccccc3s2)c2nonc2c1[N+](=O)[O-]
5. CCN(CC(=O)NC(C)(C)C)Cc1nc2c(Br)cc(Br)cc2c(=O)[nH]1
6. Cc1ccc2c(c1)C1CN(C)CCC1N2C(=S)NC(=O)c1ccc(Br)cc1 (stereo not given)
7. Cc1ccc2oc(/N=C(\N)NC(=O)C(C)(C)C)nc2c1
8. CCCC(=O)OCCNc1cc(Sc2nccn2C)c2nonc2c1[N+](=O)[O-]

Given back:
1: 1.30; 2: 1.07; 3: 0.82; 4: 0.87; 5: 1.12; 6: 1.10; 7: 1.22; 8: 0.70

Items follow; give log10 of IC50 for each.
1. O=[N+]([O-])c1c(NCCCO)cc(Sc2nc3ccccc3s2)c2nonc12
2. CS(=O)(=O)c1sc(C#N)c2c1C(=O)CC(c1ccccc1)C2 (stereo not given)
3. COc1cc(/C=C/C(O)=C/C(=O)/C=C/c2ccc(O)cc2)ccc1O
4. C=CCN(CC=C)C(=S)NC(=O)c1ccc(C)c(Br)c1
5. Cc1ccc(NS(=O)(=O)c2cc([N+](=O)[O-])ccc2NNC(=S)Nc2cc(C)ccc2C)c(C)c1

Given back:
1.16
1.66
1.60
1.10
1.52

List reported log10 of IC50 for each of these molecules:
1. CC1(C)CC[C@]2(C(=O)n3ccnc3)CC[C@]3(C)[C@H](C(=O)C=C4[C@@]5(C)C=C(C#N)C(=O)C(C)(C)[C@@H]5CC[C@]43C)[C@@H]2C1
2. CC(=O)NS(=O)(=O)c1ccc(Nc2ccc([N+](=O)[O-])c3nonc23)cc1

Given back:
1. 1.21
2. 1.67
